Observed Property: melting point

{"Compound": "CCOC(=O)c1ccc2c(c1)ncn2-c1cccc(N2CCN(C(C)=O)CC2)c1", "Endpoint Value": "155 to 156 °C"}

Problem: Using known records, supply melting point for CCOC(=O)C=Cc1ccc2c(c1)ncn2-c1cccc(N2CCCCC2)c1
Result: 85 to 87 °C

Problem: Using known records, supply melting point for CC(=O)c1ccc2c(c1)ncn2-c1cccc(C(=NOC(C)C)OC2CCCN(C)C2)c1 (centres unmarked)
Result: 83 to 84 °C

---

In this section we review reported melting point values for a set of compounds.

Example results:
{"Compound": "CCOC(=O)CON=C(C)c1ccc2c(c1)ncn2-c1cccc(C2CCCN(C)C2)c1.Cl (centres unmarked)", "melting point": "73 to 75 °C"}
{"Compound": "CCON=C(C)c1ccc2c(c1)ncn2-c1cccc(N2CCCC2)c1", "melting point": "118 to 120 °C"}
{"Compound": "ON=Cc1ccc2c(c1)ncn2-c1cccc(N2CCCCC2)c1", "melting point": "213 to 214 °C"}
{"Compound": "CN1CCCC(OC(=O)c2cccc(-n3cnc4cc(-c5ccccc5)ccc43)c2)C1.Cl (centres unmarked)", "melting point": "180 to 191 °C"}
{"Compound": "COC(=O)c1ccc2c(c1)ncn2-c1cccc(N2CCN(C)CC2)c1", "melting point": "119 to 121 °C"}

Problem: Using known records, supply melting point for CC(C)OC(=O)c1ccc2c(c1)ncn2-c1cccc(N2CCN(C)CC2)c1
Result: 110 to 111 °C

Problem: Using known records, supply melting point for OCCN1CCN(c2cccc(-n3cnc4cc(-c5ccoc5)ccc43)c2)CC1
Result: 137 to 140 °C

Problem: Using known records, supply melting point for CN1CCCC(c2cccc(-n3cnc4cc(C=NO)ccc43)c2)C1 (centres unmarked)
Result: 214 to 218 °C

Problem: Using known records, supply melting point for CCOC(=O)C=Cc1ccc2c(c1)ncn2-c1cccc(N2CCN(C)CC2)c1
Result: 133 to 134 °C

Problem: Using known records, supply melting point for CCON=C(C)c1ccc2c(c1)ncn2-c1cccc(C2CCCN(C)C2)c1.Cl (centres unmarked)
Result: 112 to 114 °C

Problem: Using known records, supply melting point for CCOC(=O)C(=CN1CCN(c2cccc(-n3cnc4cc(-c5ccoc5)ccc43)c2)CC1)C(=O)OCC
Result: 97 to 102 °C

Problem: Using known records, supply melting point for CN1CCCC(c2cccc(-n3cnc4cc(C#N)ccc43)c2)C1.Cl (centres unmarked)
Result: 158 to 160 °C

Problem: Using known records, supply melting point for CC(=NOC(C)C)c1ccc2c(c1)ncn2-c1cccc(N2CCN(CCO)CC2)c1.Cl
Result: 165 to 169 °C

Problem: Using known records, supply melting point for COC(=O)CON=C(C)c1ccc2c(c1)ncn2-c1cccc(C2CCCN(C)C2)c1 (centres unmarked)
Result: 104 to 106 °C

Problem: Using known records, supply melting point for Cl.O=C(OCc1cccnc1)c1cccc(-n2cnc3cc(-c4ccccc4)ccc32)c1
Result: 195 to 197 °C

Problem: Using known records, supply melting point for CCON=C(C)c1ccc2c(c1)ncn2-c1cccc(N2CCN(C)CC2)c1.Cl
Result: 62 to 63 °C

Problem: Using known records, supply melting point for N#Cc1ccc2c(c1)ncn2-c1cccc(N2CCCC2)c1
Result: 171 to 172 °C
